systemTested: Substance-P receptor (Homo sapiens, UniProt P25103)
Sequence (P25103 whole entry): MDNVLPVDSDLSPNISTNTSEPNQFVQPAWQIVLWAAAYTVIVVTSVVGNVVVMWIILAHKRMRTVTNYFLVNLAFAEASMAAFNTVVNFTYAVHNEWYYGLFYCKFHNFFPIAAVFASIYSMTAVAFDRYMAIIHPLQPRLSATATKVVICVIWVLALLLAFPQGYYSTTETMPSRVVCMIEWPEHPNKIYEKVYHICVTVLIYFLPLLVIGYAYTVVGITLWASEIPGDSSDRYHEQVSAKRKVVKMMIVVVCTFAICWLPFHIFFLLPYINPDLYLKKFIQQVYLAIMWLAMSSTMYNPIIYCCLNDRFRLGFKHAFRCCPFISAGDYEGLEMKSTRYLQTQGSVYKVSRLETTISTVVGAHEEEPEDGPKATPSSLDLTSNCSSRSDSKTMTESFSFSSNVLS
procedureDetails: Binding affinity against human Tachykinin receptor 1 expressed in astrocytoma UC11MG cells using [125I]- SP radioligand
Assay type: cell-based
readoutType: pIC50
Numbers only, as −log10 of the molar value.

Cc1nc2ccccc2c(-c2ccccc2)c1C(=O)N(C)Cc1cc(C(F)(F)F)cc(C(F)(F)F)c1 8.51
O=C(NCc1cc(C(F)(F)F)cc(C(F)(F)F)c1)c1c(CCl)nc2ccccc2c1-c1ccccc1 7.59
NCc1nc2ccccc2c(-c2ccccc2)c1C(=O)NCc1cc(C(F)(F)F)cc(C(F)(F)F)c1 11.77

API: value(readout=pIC50, system=Substance-P receptor (Homo sapiens, UniProt P25103)) for record CN(Cc1cc(C(F)(F)F)cc(C(F)(F)F)c1)C(=O)c1c(CN)nc2ccccc2c1-c1ccccc1
8.05
